Each item that follows carries a reported APOE RNA (% UTC).
Tested on: human APOE RNA
Assay: Dose-dependent inhibition of human APOE RNA in differentiated SH-SY5Y cells, free uptake, 5 days (Example 5)
Type: cell-based
Conditions: 3,200 nM, 5 days (Table 14)
Strand notation (5' to 3'): a small letter for the sugar, then the base; units joined by * are phosphorothioate-linked, units joined directly phosphodiester-linked; [ ] holds rarer units or linkages, { } end groups; capitals alone tell only the bases. [ms] = mesyl phosphoramidate linkage; e = 2'-O-(2-methoxyethyl) (MOE); k = constrained ethyl (cEt); [5mC] = 5-methylcytosine; d = 2'-deoxy (DNA)
Please state the figure in % UTC; there is no need to write the unit.

substance	unit_descriptor	APOE RNA (% UTC)
1746809 (k[5mC]*dT[ms]kT*dG[ms]kG*dT[ms]dG[ms]dA[ms]dA[ms]dT*d[5mC]*dT*dT*dT*dA[ms]dT*dT[ms]kA*kA*kA; antisense) [Compound 1746809]	% UTC	34

For the next question, use this substance.
Please report the measured APOE RNA (% UTC) for 1778128: modified oligonucleotide complementary to human APOE RNA (eA*e[5mC]eTeTkGkG*dT*dG[ms]dA[ms]dA*dT*d[5mC]*dT*dT*dT*dA[ms]kTeT*eA*eA; antisense) [compound 1778128] tested on human APOE RNA. 40

* * *

Each item that follows carries a reported APOE RNA (% UTC).
Tested on: human APOE RNA
Assay: Dose-dependent inhibition of human APOE RNA in HepG2 cells, electroporation, 50,000 cells per well, RT-PCR normalized to GAPDH (Example 4, Tables 8-10)
Assay type: cell-based
Details: 1,280 nM; HepG2, electroporation, 24-hour treatment
Strand notation (5' to 3'): a small letter for the sugar, then the base; units joined by * are phosphorothioate-linked, units joined directly phosphodiester-linked; [ ] holds rarer units or linkages, { } end groups; capitals alone tell only the bases. [ms] = mesyl phosphoramidate linkage; k = constrained ethyl (cEt); [5mC] = 5-methylcytosine; d = 2'-deoxy (DNA)
Please state the figure in % UTC; there is no need to write the unit.

# annotated cases, reported APOE RNA (% UTC) shown
substance	APOE RNA (% UTC)
1746789 (k[5mC]*dT[ms]kT*dG[ms]kG*dT[ms]dG[ms]dA[ms]dA[ms]dT*d[5mC]*dT*dT*dT*dA[ms]dT*kT*kA*dA[ms]kA; antisense) [Compound 1746789]	37
1746805 (k[5mC]*kT*dT[ms]kG*dG[ms]dT[ms]dG[ms]dA[ms]dA[ms]dT*d[5mC]*dT*dT*dT*dA[ms]dT*dT[ms]kA*kA*kA; antisense) [Compound 1746805]	41

For the next question, use this substance.
Identify the reported APOE RNA (% UTC) for the following entry. 1746806 (k[5mC]*kT*dT[ms]dG[ms]kG*dT[ms]dG[ms]dA[ms]dA[ms]dT*d[5mC]*dT*dT*dT*dA[ms]dT*dT[ms]kA*kA*kA; antisense) [Compound 1746806] 57

* * *

System: human APOE RNA
Assay: Activity in APOE C57BL/6NTac-Apoeem7250 knock-in mice, single ICV bolus, 16 weeks (Example 12)
Format: in vivo
Conditions: cortex; single ICV bolus 300 μg; 16 weeks post treatment; normalized to mouse Ppia
Strand notation (5' to 3'): a small letter for the sugar, then the base; units joined by * are phosphorothioate-linked, units joined directly phosphodiester-linked; [ ] holds rarer units or linkages, { } end groups; capitals alone tell only the bases. [ms] = mesyl phosphoramidate linkage; e = 2'-O-(2-methoxyethyl) (MOE); k = constrained ethyl (cEt); [5mC] = 5-methylcytosine; d = 2'-deoxy (DNA)
Each item that follows carries a reported APOE RNA (% control) Cortex.
Please state the figure in % control; there is no need to write the unit.

# annotated cases, reported APOE RNA (% control) Cortex shown
substance	study_system	unit_descriptor	result_number
1778131: modified oligonucleotide complementary to human APOE RNA (eA*e[5mC]eTeTeGkG*dT*dG[ms]dA[ms]dA*dT*d[5mC]*dT*dT*dT*dA[ms]kTkT*eA*eA; antisense) [compound 1778131]	human APOE RNA	% control	34
1778123: modified oligonucleotide complementary to human APOE RNA (eA*e[5mC]eTeTeG*eG*dT*dG[ms]dA[ms]dA*dT*d[5mC]*dT*dT*dT*dA[ms]kTkT*eA*eA; antisense) [compound 1778123]	human APOE RNA	% control	54
1693062: 5-10-5 MOE gapmer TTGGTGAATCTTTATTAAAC, linkages ssssozzzsssszzsssss (antisense eT*eT*eG*eG*eTdG[ms]dA[ms]dA[ms]dT*d[5mC]*dT*dT*dT[ms]dA[ms]dT*eT*eA*eA*eA*e[5mC]) [compound 1693062]	human APOE RNA	% control	98

For the next question, use this substance.
Please report the measured APOE RNA (% control) Cortex for 1785601: modified oligonucleotide complementary to human APOE RNA (k[5mC]*kT*kT*dG[ms]dG[ms]dT[ms]dG*dA[ms]dA[ms]dT*d[5mC]*dT*dT*dT*dA[ms]dT*kT*kA*dA[ms]kA; antisense) [compound 1785601] tested on human APOE RNA. 39

* * *

Tested on: human APOE RNA
Test: Dose-dependent inhibition of human APOE RNA in HepG2 cells, electroporation, 24 hours (Example 6)
Type: cell-based
Details: 13 nM
Strand notation (5' to 3'): a small letter for the sugar, then the base; units joined by * are phosphorothioate-linked, units joined directly phosphodiester-linked; [ ] holds rarer units or linkages, { } end groups; capitals alone tell only the bases. [ms] = mesyl phosphoramidate linkage; e = 2'-O-(2-methoxyethyl) (MOE); k = constrained ethyl (cEt); [5mC] = 5-methylcytosine; d = 2'-deoxy (DNA)
observed_property: APOE RNA (% UTC)
Please state the figure in % UTC; there is no need to write the unit.

substance	result_number
1693105: 6-10-4 MOE gapmer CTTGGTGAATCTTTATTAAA, linkages sosssszzzssssszssss (e[5mC]*eTeT*eG*eG*eT*dG[ms]dA[ms]dA[ms]dT*d[5mC]*dT*dT*dT*dA[ms]dT*eT*eA*eA*eA) [compound 1693105]	104
1736521: 6-10-4 MOE gapmer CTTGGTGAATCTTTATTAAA, linkages sosssszzzsssssssoss (e[5mC]*eTeT*eG*eG*eT*dG[ms]dA[ms]dA[ms]dT*d[5mC]*dT*dT*dT*dA*dT*eTeA*eA*eA) [compound 1736521]	109
1736533 (e[5mC]*eT*eT*eG*eGeT*dG[ms]dA[ms]dA[ms]dT*d[5mC]*dT*dT*dT*dA[ms]dT*kT*eA*eA*eA; antisense) [Compound 1736533]	83
1652902: 6-10-4 MOE gapmer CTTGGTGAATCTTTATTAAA, linkages sooooossssssssssoss (antisense e[5mC]*eTeTeGeGeTdG*dA*dA*dT*d[5mC]*dT*dT*dT*dA*dT*eTeA*eA*eA) [compound 1652902]	94
1693102: 6-10-4 MOE gapmer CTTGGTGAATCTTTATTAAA, linkages ssssoszzzssssszssss (e[5mC]*eT*eT*eG*eGeT*dG[ms]dA[ms]dA[ms]dT*d[5mC]*dT*dT*dT*dA[ms]dT*eT*eA*eA*eA) [compound 1693102]	95

For the next question, use this substance.
Please report the measured APOE RNA (% UTC) for 1693101: 6-10-4 MOE gapmer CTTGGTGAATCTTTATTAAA, linkages sssssozzzssssszssss (e[5mC]*eT*eT*eG*eG*eTdG[ms]dA[ms]dA[ms]dT*d[5mC]*dT*dT*dT*dA[ms]dT*eT*eA*eA*eA) [compound 1693101] tested on human APOE RNA. 91

* * *

System: human APOE RNA
Assay: Activity in APOE C57BL/6NTac-Apoeem7250 knock-in mice, single ICV bolus, 8 weeks (Example 11)
Type: in vivo
Conditions: spinal cord; single ICV bolus 300 μg; 8 weeks post treatment; normalized to mouse Ppia
Strand notation (5' to 3'): a small letter for the sugar, then the base; units joined by * are phosphorothioate-linked, units joined directly phosphodiester-linked; [ ] holds rarer units or linkages, { } end groups; capitals alone tell only the bases. [ms] = mesyl phosphoramidate linkage; e = 2'-O-(2-methoxyethyl) (MOE); k = constrained ethyl (cEt); [5mC] = 5-methylcytosine; d = 2'-deoxy (DNA)
Each item that follows carries a reported APOE RNA (% control) Spinal Cord.
Please state the figure in % control; there is no need to write the unit.

substance	APOE RNA (% control) Spinal Cord
1652900: 6-10-4 MOE gapmer GTGAATCTTTATTAAACTAG, linkages sooooossssssssssoss (antisense eG*eTeGeAeAeTd[5mC]*dT*dT*dT*dA*dT*dT*dA*dA*dA*e[5mC]eT*eA*eG) [compound 1652900]	47
1652914: 5-10-5 MOE gapmer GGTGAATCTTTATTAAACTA, linkages soooszzssssssszooss (antisense eG*eGeTeGeA*dA[ms]dT[ms]d[5mC]*dT*dT*dT*dA*dT*dT*dA[ms]eAeAe[5mC]*eT*eA) [compound 1652914]	43
1681003: 5-10-5 MOE gapmer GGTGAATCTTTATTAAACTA, linkages soooszsssszzszsooss (antisense eG*eGeTeGeA*dA[ms]dT*d[5mC]*dT*dT*dT[ms]dA[ms]dT*dT[ms]dA*eAeAe[5mC]*eT*eA) [compound 1681003]	48

For the next question, use this substance.
Please report the measured APOE RNA (% control) Spinal Cord for 1757574 (eA*e[5mC]eTeT*eG*eG*dT*dG[ms]dA[ms]dA[ms]dT*d[5mC]*dT*dT*dT*dA[ms]kT*kT*eA*eA; antisense) [Compound 1757574] tested on human APOE RNA. 21
